Catalogue of Human P-cadherin-Fc binding (OD450) readings, one per entry.
# Measurement target: T1, P-cadherin-ECD1-3-Fc protein (human P-cadherin-Fc) (human, UniProt P22223 108-440)
# T1 construct: Construct was expressed with signal peptide and pro-peptide (PACE co-transfected to process the propeptide); not shown: hinge and CH2 and CH3 domains of human IgG1
# T1 sequence (P22223 108-440): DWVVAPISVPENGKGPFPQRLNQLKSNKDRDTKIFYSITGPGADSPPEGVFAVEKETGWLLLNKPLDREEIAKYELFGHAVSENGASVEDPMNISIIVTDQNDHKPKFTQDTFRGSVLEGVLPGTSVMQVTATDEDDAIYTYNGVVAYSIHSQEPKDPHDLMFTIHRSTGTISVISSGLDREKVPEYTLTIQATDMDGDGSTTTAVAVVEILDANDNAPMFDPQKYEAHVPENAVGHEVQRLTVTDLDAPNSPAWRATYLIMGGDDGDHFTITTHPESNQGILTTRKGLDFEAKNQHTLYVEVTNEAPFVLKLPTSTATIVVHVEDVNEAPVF
# Protocol notes: phage scFv ELISA, coated P-cadherin-ECD1-3-Fc

| Binder | Human P-cadherin-Fc binding (OD450) |
| --- | --- |
| anti-P-cadherin scFv 153 alanine-mutant H1.10-Ala (scFv, V domains shown, scFv on phage) VH: EVQLVQSGAEVKKPGASVKVSCKASGYTFTSYGIAWVRQAPGQGLEWMGWISAYNGNTNYAQKLQGRVTMTTDTSTSTAYMELRSLRSDDTAVYYCATIDTANAFGIWGQGTMVTVSS VL: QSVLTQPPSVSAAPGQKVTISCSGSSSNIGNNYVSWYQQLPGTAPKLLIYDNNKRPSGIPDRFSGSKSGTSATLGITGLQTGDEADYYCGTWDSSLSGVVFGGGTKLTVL | 2.13 OD450 |
| anti-P-cadherin scFv 153 alanine-mutant H3.8-Ala (scFv, V domains shown, scFv on phage) VH: EVQLVQSGAEVKKPGASVKVSCKASGYTFTSYGISWVRQAPGQGLEWMGWISAYNGNTNYAQKLQGRVTMTTDTSTSTAYMELRSLRSDDTAVYYCATIDTANAFAIWGQGTMVTVSS VL: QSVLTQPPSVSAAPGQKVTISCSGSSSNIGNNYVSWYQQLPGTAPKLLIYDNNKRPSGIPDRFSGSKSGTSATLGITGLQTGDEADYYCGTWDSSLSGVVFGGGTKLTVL | 1.36 OD450 |
